# SYSTEM_UNDER_TEST: xanthine oxidase (XO) (Bos taurus, UniProt P80457)
# Sequence (P80457 2-1332): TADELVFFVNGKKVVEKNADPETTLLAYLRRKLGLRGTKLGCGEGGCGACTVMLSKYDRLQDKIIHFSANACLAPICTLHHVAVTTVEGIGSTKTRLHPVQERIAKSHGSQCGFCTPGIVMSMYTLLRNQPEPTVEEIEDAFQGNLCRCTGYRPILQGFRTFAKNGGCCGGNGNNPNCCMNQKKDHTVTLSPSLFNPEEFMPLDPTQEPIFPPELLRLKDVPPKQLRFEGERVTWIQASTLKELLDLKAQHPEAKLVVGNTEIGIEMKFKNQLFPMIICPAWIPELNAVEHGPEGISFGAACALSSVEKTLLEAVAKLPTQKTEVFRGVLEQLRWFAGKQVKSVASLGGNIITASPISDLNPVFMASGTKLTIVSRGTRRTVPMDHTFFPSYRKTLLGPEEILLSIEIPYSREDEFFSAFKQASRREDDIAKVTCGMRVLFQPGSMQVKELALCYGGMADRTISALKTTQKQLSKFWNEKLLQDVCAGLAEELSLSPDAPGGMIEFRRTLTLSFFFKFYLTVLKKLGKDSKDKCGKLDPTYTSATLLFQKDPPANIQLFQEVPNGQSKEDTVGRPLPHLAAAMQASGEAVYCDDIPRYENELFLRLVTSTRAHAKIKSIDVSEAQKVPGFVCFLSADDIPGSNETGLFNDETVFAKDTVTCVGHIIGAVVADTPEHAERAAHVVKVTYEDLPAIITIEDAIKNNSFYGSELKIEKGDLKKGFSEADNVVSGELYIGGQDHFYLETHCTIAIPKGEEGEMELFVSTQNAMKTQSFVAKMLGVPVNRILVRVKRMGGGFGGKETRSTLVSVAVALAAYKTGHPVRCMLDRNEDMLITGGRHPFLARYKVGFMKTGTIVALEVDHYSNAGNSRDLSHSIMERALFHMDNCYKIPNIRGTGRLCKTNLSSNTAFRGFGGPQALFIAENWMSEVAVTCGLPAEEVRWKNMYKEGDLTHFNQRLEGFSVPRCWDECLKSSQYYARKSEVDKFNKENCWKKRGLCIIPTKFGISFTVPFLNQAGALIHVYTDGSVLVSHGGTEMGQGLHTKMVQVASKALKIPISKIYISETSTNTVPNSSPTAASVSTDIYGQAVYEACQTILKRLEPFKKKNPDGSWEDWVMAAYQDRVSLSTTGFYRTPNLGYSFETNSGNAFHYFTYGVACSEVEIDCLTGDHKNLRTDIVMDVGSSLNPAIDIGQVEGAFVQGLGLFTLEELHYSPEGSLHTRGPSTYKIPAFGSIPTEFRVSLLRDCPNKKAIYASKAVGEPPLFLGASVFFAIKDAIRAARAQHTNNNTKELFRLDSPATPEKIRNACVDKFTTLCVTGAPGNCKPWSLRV
pKi: −log10 of the molar value.
MEASURE: pKi

molecule="O=c1[nH]c(=O)c2[nH]cnc2[nH]1 [xanthine]" reported_value=5.52

* * *

# SYSTEM_UNDER_TEST: purine nucleoside phosphorylase (WT PNP) (Escherichia coli)
# Construct: recombinant wild-type E. coli PNP, hexamer
# Sequence (P0ABP8 2-239): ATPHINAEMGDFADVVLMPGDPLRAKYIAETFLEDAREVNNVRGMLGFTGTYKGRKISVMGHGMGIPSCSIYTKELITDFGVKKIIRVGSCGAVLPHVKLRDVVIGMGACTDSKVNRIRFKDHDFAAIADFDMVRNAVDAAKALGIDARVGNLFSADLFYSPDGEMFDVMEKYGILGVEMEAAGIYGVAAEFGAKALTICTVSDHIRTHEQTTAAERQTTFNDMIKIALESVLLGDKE
# TEST_PROTOCOL: crystal structure ([…] Å) and isothermal titration calorimetry
MEASURE: Kd (µM)

mol=c1cn2c(n1)ncc1nc[nH]c12 units_of_measure=µM reported_value=36.2
